Measured values drawn from patent US20110021531A1 for this set.

- SUBJECT_OF_TEST: rat FAAH (Fatty Acid Amide Hydrolase) (Rattus norvegicus, UniProt P97612)
- Sequence (P97612 whole entry): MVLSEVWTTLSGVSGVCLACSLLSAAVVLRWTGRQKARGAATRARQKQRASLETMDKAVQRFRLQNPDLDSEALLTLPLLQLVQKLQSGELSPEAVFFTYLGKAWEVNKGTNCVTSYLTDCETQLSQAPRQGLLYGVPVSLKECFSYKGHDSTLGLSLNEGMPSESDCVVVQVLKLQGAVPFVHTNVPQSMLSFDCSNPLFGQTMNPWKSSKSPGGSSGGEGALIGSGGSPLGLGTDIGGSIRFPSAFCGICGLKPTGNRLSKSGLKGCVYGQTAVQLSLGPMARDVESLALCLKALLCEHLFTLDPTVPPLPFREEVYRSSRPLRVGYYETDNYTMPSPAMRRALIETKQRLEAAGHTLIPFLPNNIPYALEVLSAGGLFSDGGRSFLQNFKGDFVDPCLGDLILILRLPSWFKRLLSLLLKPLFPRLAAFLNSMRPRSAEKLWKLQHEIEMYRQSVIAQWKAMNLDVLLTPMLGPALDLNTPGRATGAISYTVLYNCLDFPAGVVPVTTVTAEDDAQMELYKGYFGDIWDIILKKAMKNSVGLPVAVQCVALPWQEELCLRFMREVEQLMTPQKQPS
- METHOD: FAAH whole cell assay, CHO cells expressing rat FAAH
Counter-ions that a name gives are not always drawn.
ENDPOINT_LABEL: pIC50
Scale note: pIC50 = -log10(concentration in M).

These recorded examples may help you get a feel for the data.
N#CC1(c2ccc(-c3nc(-c4ccc(F)cc4)oc3Sc3ccc(Cl)cn3)cn2)CC(O)C1 (centres unmarked) [Ex 122] ... 6.84
CC(C)(O)c1ccc(-c2nc(-c3ccccn3)oc2Sc2ncc(Cl)cn2)cn1 [Ex 131] ... 6.11
CCOC(=O)c1cc(-c2nc(-c3ccc(F)cc3)oc2Sc2ccc(Cl)cn2)on1 [Ex 97] ... 8.00
CCn1cc(-c2nc(-c3ccc(C(C)(C)O)nc3)c(Sc3ccc(Cl)cc3)o2)cn1 [Ex 111] ... 7.62
CC(C)(O)c1ccc(-c2nc(-c3ccc(F)cc3)oc2Sc2ccc(F)cn2)cn1 [Ex 19] ... 7.74

Fill in the recorded pIC50 for this compound, with rat FAAH (Fatty Acid Amide Hydrolase) (Rattus norvegicus, UniProt P97612) as test system: CC(C)(O)c1ccc(-c2nc(-c3ccccn3)oc2Sc2ccc(Cl)cn2)cn1 [Ex 51, trifluoroacetic acid salt] 6.97

Fill in the recorded pIC50 for this compound, with rat FAAH (Fatty Acid Amide Hydrolase) (Rattus norvegicus, UniProt P97612) as test system: Cc1cc(F)ccc1-c1nc(-c2ccc(C(C)(C)O)nc2)c(Sc2ccc(Cl)cn2)o1 [Ex 37] 7.82

Fill in the recorded pIC50 for this compound, with rat FAAH (Fatty Acid Amide Hydrolase) (Rattus norvegicus, UniProt P97612) as test system: CC(C)(O)c1ccc(-c2nc(-c3ccc(F)cc3)oc2Sc2ccc(Cl)cc2)nc1 [Ex 46] 8.00
